Measured half-life values are reported for all entries that follow.
- protocol notes: Pharmacokinetics after bolus intradermal injection in an adult rat
- Format: in vivo
- condition summary: rat, in vivo, 0.9 mg, T1/2 half life
- Source text: To improve their chemical stability and increase resistance to exopeptidases, peptides were synthesised as acetate salts of “capped” N-pyroglutamate, C-amide: NPL001 (SEQ ID NO:228), NPL002 (SEQ ID NO:229) and NPL003 (SEQ ID NO:230) 15mers or 16mers with glutamate at sites predicted to be deamidated by tTG. […]
Square brackets hold non-standard residues; d marks the D form. Peptide text beside a SMILES is read from it. pGlu = O=C1CC[C@@H](C(=O)O)N1

molecule | half-life
CC[C@H](C)[C@H](NC(=O)[C@@H]1CCCN1C(=O)[C@H](CCC(N)=O)NC(=O)[C@H](CCC(=O)O)NC(=O)[C@@H]1CCCN1C(=O)[C@H](Cc1ccccc1)NC(C)=O)C(=O)N1CCC[C@H]1C(=O)N[C@@H](CCC(=O)O)C(=O)N[C@@H](CCC(N)=O)C(=O)N1CCC[C@H]1C(=O)N[C@@H](CCC(N)=O)C(=O)N1CCC[C@H]1C(=O)N[C@@H](Cc1ccc(O)cc1)C(=O)N1CCC[C@H]1C(=O)N[C@@H](CCC(N)=O)C(=O)N[C@@H](CCC(N)=O)C(N)=O [NPL032, Ac-FPEQPIPEQPQPYPQQ-amide] (Ac-FPEQPIPEQPQPYPQQ-NH2) | 19 to 24 min
CC(=O)N[C@@H](CCC(N)=O)C(=O)N[C@@H](CC(C)C)C(=O)N[C@@H](CCC(N)=O)C(=O)N1CCC[C@H]1C(=O)N[C@@H](Cc1ccccc1)C(=O)N1CCC[C@H]1C(=O)N[C@@H](CCC(N)=O)C(=O)N1CCC[C@H]1C(=O)N[C@@H](CCC(=O)O)C(=O)N[C@@H](CC(C)C)C(=O)N1CCC[C@H]1C(=O)N[C@@H](Cc1ccc(O)cc1)C(=O)N1CCC[C@H]1C(=O)N[C@@H](CCC(N)=O)C(=O)N1CCC[C@H]1C(=O)N[C@@H](CCC(N)=O)C(N)=O [NPL030, Ac-QLQPFPQPELPYPQPQ-amide] (Ac-QLQPFPQPELPYPQPQ-NH2) | 19 to 24 min
CC[C@H](C)[C@H](NC(=O)[C@@H]1CCCN1C(=O)[C@H](CCC(N)=O)NC(=O)[C@H](CCC(=O)O)NC(=O)[C@@H]1CCCN1C(=O)[C@@H]1CCC(=O)N1)C(=O)N1CCC[C@H]1C(=O)N[C@@H](CCC(=O)O)C(=O)N[C@@H](CCC(N)=O)C(=O)N1CCC[C@H]1C(=O)N[C@@H](CCC(N)=O)C(=O)N1CCC[C@H]1C(=O)N[C@@H](Cc1ccc(O)cc1)C(=O)N1CCC[C@H]1C(=O)N[C@@H](CCC(N)=O)C(=O)N[C@@H](CCC(N)=O)C(N)=O [NPL003, pyroEPEQPIPEQPQPYPQQ-amide] ([pGlu]PEQPIPEQPQPYPQQ-NH2) | 26 to 28 min
